target: Fructose-bisphosphate aldolase (Mycobacterium tuberculosis (strain ATCC 25618 / H37Rv)); assay: Mtb FBA enzyme inhibitors, primary screen, biochemical, fluorescence, strain H37Rv (AID 588726);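 further: 0% = vehicle and 100% = reference inhibitor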; conditions: purified M. tuberculosis FBA, fluorescence read-out, at 1 µM
The campaign covered roughly 360,000 compounds. About 8,200 (2.3%) were called active. No stated cut-off is given here; in the data, active means inhibition above about 27%; inactive means the rest. This excerpt belongs to a sample that is enriched for actives.
Outcome (select one): active, inactive

# count of solved cases: 5
[
  {
    "Molecule": "CCn1nc(C)cc1C(=O)N1CCCC(C(=O)c2cccc(OC)c2)C1 (centres undefined)",
    "Assigned Class": "inactive"
  },
  {
    "Molecule": "CN1CCn2cnc(C(=O)NCC(=O)OC(C)(C)C)c2C1=O",
    "Assigned Class": "inactive"
  },
  {
    "Molecule": "CC(=O)c1cnn(-c2cc(Oc3ccc(F)cc3)ncn2)c1C",
    "Assigned Class": "inactive"
  },
  {
    "Molecule": "CCNC(=S)N(CCN(CC)CC)Cc1cc2cc3c(cc2[nH]c1=O)OCO3",
    "Assigned Class": "active"
  },
  {
    "Molecule": "Cc1ccc(CNC(=O)c2ccccc2CCc2ccccc2)cc1",
    "Assigned Class": "inactive"
  }
]

// query Recorded test call requested for COc1ccc(CCNC(=O)c2cc3sccc3n2C)cc1OC
// result inactive

// query Hello, I am checking results. What call was entered for CCCC(O)(c1ccccc1)C(c1ccccc1)c1ccccn1 (centres undefined) ?
// result inactive

// query For this molecule, state the assay outcome: CN1CCc2c(sc3c2c(NCc2ccco2)nc2nnnn23)C1
// result active

// query Call for entry COc1ccc2cc(C(=O)C3CCCN(C(=O)c4sc(C)nc4C)C3)ccc2c1 (centres undefined) :
// result active

// query Record request — test call for COc1ccc(C(=O)C2CCCN(C(=O)c3cnsn3)C2)c(C)c1 (centres undefined)
// result inactive

// query Test call for this molecule, please: Cc1cn(C2OC[C@@H](O)[C@@H]2CO)c(=O)[nH]c1=O (some centres undefined)
// result inactive

// query What did this assay record as the result for CC(C)C(NS(=O)(=O)c1cccs1)C(=O)Nc1nc(C(C)(C)C)cs1 (centres undefined) ?
// result inactive

// query Just curious, what result did CC(=O)c1cccc(NC(=O)COc2ccc(S(=O)(=O)N3CCOCC3)cc2)c1 get here?
// result inactive

// query Hey, what did the test say about COc1ccc(OC)c(NC(=O)C2CCCN2S(=O)(=O)c2ccc3c(c2)CC(C)N3C(C)=O)c1 (centres undefined) ?
// result inactive

// query Could you please tell me the result logged for CC(Sc1sc(=S)sc1SC(C)C(=O)O)C(=O)O (centres undefined) in this assay?
// result inactive

// query Could you check what this test reported for Cc1nc2ccc(NC(=S)N3CCC(C)CC3)cc2nc1C ?
// result inactive

// query Per the assay record, what outcome was assigned to CCOc1ccc(-c2nc(C)sc2CC(=O)O)cc1 ?
// result inactive

// query Recorded test outcome, item O=c1c2c(nc3cc(-c4cccc(Cl)c4)[nH]n13)CCCC2
// result inactive

// query Tell me the assay call for CCCSc1nc(NCc2ccco2)c2c3c(sc2n1)COC(C)(CC)C3 (centres undefined) please.
// result inactive

// query Hello, I am checking results. What call was entered for CC(=O)N(CN1C(=O)C2C3C=CC(C3)C2C1=O)c1cccc(Cl)c1 (centres undefined) ?
// result inactive

// query Any idea what this test logged for Cc1cc(C)cc(Oc2nc3c(C)cccn3c(=O)c2/C=C(\C#N)C(=O)NC2CCS(=O)(=O)C2)c1 (centres undefined) ?
// result inactive

----------
molecular target: Fructose-bisphosphate aldolase (Mycobacterium tuberculosis (strain ATCC 25618 / H37Rv)); test: Mtb FBA enzyme inhibitors, primary screen, biochemical, fluorescence, strain H37Rv (AID 588726);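 further: 0% = vehicle and 100% = reference inhibitor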; conditions: purified M. tuberculosis FBA, fluorescence read-out, at 1 µM, active compounds read high
Among all 360,000 compounds or so, about 8,200 (2.3%) were called active. Shown is part of a subset that was picked to be rich in actives.
Exercise: state measured inhibition for each of the compounds provided.
Answers are plain numbers, in %.

[
  {
    "Compound": "COc1ccc(CCN(Cc2cc3cccc(C)c3[nH]c2=O)C(=O)N2CCCC2)cc1OC",
    "Tested Target": "Fructose-bisphosphate aldolase (Mycobacterium tuberculosis (strain ATCC 25618 / H37Rv))",
    "Unit Text": "%",
    "inhibition": 0.64
  }
]

Hi, could you look up inhibition for each item in my list?
1. Cc1ccc2c(Cl)c(C(=O)NCCCn3ccnc3)sc2c1
2. CCNC(=S)Nc1ccc2c(c1)c(=O)n(C)n2Cc1ccc(Cl)cc1
3. Cc1ccc2c(C(=O)CN3CCCC3)c(C)[nH]c2c1
4. O=C(NC1CCCC1)C1CC(=O)N(c2ccc(F)cc2)C1 (stereo not drawn)

// result
1: -2.28; 2: 59.7; 3: -0.06; 4: -3.06

Count: 6. Required value per item: inhibition.
1. Cc1ccc(S(=O)(=O)c2nc(NCCCn3ccnc3)sc2Cl)cc1
2. CCOc1cc(C2C(C(=O)OC)=CN(C3CCCC3)C=C2C(=O)OC)cc(Br)c1O
3. O=C(N/C(=C\c1ccc([N+](=O)[O-])cc1)C(=O)N1CCOCC1)c1cccc(Br)c1
4. COc1cc(CCN=Cc2ccccc2O)c([N+](=O)[O-])cc1OC
5. C[C@H](O)[C@@H]1C(=O)N2CCc3c([nH]c4ccccc34)[C@@H]2C[C@@H]1N(C)C(=O)Nc1ccc(F)cc1
6. NS(=O)(=O)c1ccc2nc(NC(=O)C3=COCCO3)sc2c1

// result
1: 0.32; 2: 9.72; 3: -1.01; 4: 1.91; 5: 55.9; 6: 1.72

Value sought for every listed compound: inhibition.
1. CC1C2Cn3c(nc4ccccc43)C1N(C)O2 (stereo not drawn)
2. COC(=O)C1=CN(C)C=C(C(=O)OC)C1c1ccc(Cl)cc1Cl
3. CN(C)Cc1c(O)ccc2c(=O)c(-c3ccccc3Cl)coc12

// result
1: -1.64; 2: 12.4; 3: 96.3

# batch: return inhibition for each of the 5 compounds below
1. CC(=O)Oc1ccc(C(C)=O)c2c1OCCO2
2. COc1ccccc1C(=O)Nn1c(-c2cccs2)nc2ccccc2c1=O
3. Cc1ccc(C(=O)c2coc3ccc(O)c(CN(C)C)c23)cc1
4. O=C1CN(C(=O)COC(=O)C2CC(=O)N(Cc3ccco3)C2)c2ccccc2N1 (stereo not drawn)
5. COC(=O)c1cc(CNC(=O)CC(C)c2ccccc2)ccc1OC (stereo not drawn)

// result
1. 5.05
2. 0.05
3. -0.7
4. 1.16
5. -0.38

Consider the following items and state reported inhibition for each.
1. CC(C)C(=O)Nc1ccc2c3c(cccc13)CC2
2. COCC(=O)N(C)[C@H]1C[C@H]2c3cc(Oc4ccccc4C)ccc3CCN2C(=O)[C@H]1[C@H](C)O
3. COc1ccc(-c2[nH]ncc2CN(C)Cc2cc(C)[nH]n2)c(F)c1
4. N#CC1(Nc2ccc(-c3ccc(Cl)cc3)cc2)CCCC1
5. COc1cc2[nH]c(=O)n(CCC(=O)NC3CCN(Cc4ccccc4)CC3)c(=O)c2cc1OC
6. COc1ccc2nc(Nc3nc4cc5c(cc4s3)OCCO5)sc2c1

// result
[-0.4, 0.95, -3.53, -1.27, 5.35, 58.2]

Please report inhibition for every entry that follows.
1. Cc1cc(NC(=O)CCN2CCN(Cc3ccccc3)CC2)ccc1Br
2. C[C@H](O)[C@@H]1C(=O)N2CCc3ccc(N4CCOCC4)cc3[C@@H]2C[C@@H]1N(C)C(=O)C(C)(C)C
3. CN1c2ccc(C=O)c3c(C=O)ccc(c23)N(C)C1(C)C
4. CC(C)CC(=O)N=C1SC2CS(=O)(=O)CC2N1CCc1ccccc1 (stereo not drawn)
5. Cc1ccc(-c2nc(C#N)c(NCCCn3ccnc3)o2)cc1
6. O=C(CNC(=O)c1ccccc1)NCC(=O)OCc1ccc(Cl)cc1
7. CC(C)NC(=O)Nc1cccc2c1O[C@H](CN(C)S(=O)(=O)c1cccs1)[C@@H](C)CN([C@H](C)CO)C2=O

// result
1. 0.67
2. 7.29
3. 62.1
4. -1.54
5. 71.6
6. 0.34
7. 4.46

List inhibition for every entry below, keeping the order given.
1. Cc1ccc(C(=O)OCC(=O)NC(=O)Cc2ccccc2)c(O)c1
2. COc1cc(Cn2c3ccc(NC(=O)CC(C)c4ccccc4)cc3c(=O)n2C)ccc1F (stereo not drawn)
3. Cc1c(C(=O)CN2CCOCC2)[nH]c2ccccc12
4. CCc1ccc(OCC(=O)N(Cc2ccccc2)C2CCS(=O)(=O)C2)cc1 (stereo not drawn)
5. Fc1ccccc1CNC(=S)Nc1ccc(Cl)cc1

// result
1: -0.03; 2: 146; 3: -0.51; 4: 4.66; 5: 0.3

Each of the following entries comes with a recorded value; kindly state inhibition for each.
1. CC1(C)CC(=O)c2c(n(S(=O)(=O)c3ccccc3)c3ccc(NS(=O)(=O)c4ccccc4)cc23)C1
2. O=C1CCCN1CCCNC(=S)Nc1ccc(F)c(Cl)c1
3. CCOc1ccccc1C1C(C(=O)OC)=CN(C)C=C1C(=O)OC
4. O=C(Nc1nnc(C2=COCCO2)o1)c1ccc([N+](=O)[O-])s1
5. O=C(CCN1C(=O)[C@@H]2Cc3ccccc3CN2C1=O)NCCc1ccccc1

// result
-1.63
-1.02
180
-5.53
-6.76

// query Name the recorded inhibition of the compound listed here: Oc1ccc(C2Nc3cccc4cccc(c34)N2)cc1
// result -2.34
